Assay: NCI Yeast Anticancer Drug Screen. Data for the bub3 strain (AID 167)
Conditions: S. cerevisiae bub3 mutant strain, at 50.0 µM, active compounds read high
This is part of a sample that, as a whole, favours compounds with a hit. Of some 79,000 tested, about 15% had one in any assay.
Assign growth inhibition to each entry below.
Only the number, expressed in %, is required.

Request: Recorded growth inhibition for CCCCCCCCCCCC(=O)N(C)C , please?
Result: 92

Request: Entry to check: Cc1c(C2=C(Br)C(=O)N(C)C2=O)c(=O)n(C)c(=O)n1C
Result: 28.1

Request: Please answer likewise for O=[N+]([O-])c1cc2no[n+]([O-])c2cc1N1CCCCC1
Result: 91.3

Request: Try this compound next: CC(=O)Nc1ccc(/C=C(\C#N)c2ccc(C)cc2)cc1
Result: 63.7

Request: # repeat for COc1cc2c(cc1[N+](=O)[O-])C(=O)C(Br)(Br)CCC2
Result: 90

Request: Next entry: COc1cc(C2c3cc4c(cc3OC(Nc3ccccc3)C2C)OCO4)cc(OC)c1O (stereo unspecified)
Result: 43.8

Request: // repeat for COC(=O)C1=C(C(=O)OC)C2(C)C=CC1O2 (stereo unspecified) and report
Result: 89.6

Request: Same question for NNc1c(F)c(F)cc(F)c1F please.
Result: 84.6

Request: Also check CCOC(=O)c1cnc2cc(C(F)(F)F)ccc2c1N=[N+]=[N-]
Result: -3.4

Request: Likewise for [N-]=N[N+]#I1OC(C(F)(F)F)(C(F)(F)F)c2ccccc21 ?
Result: 92.8

Request: Also CC(C)/C(Cl)=N\OC(=O)Nc1ccc(F)cc1 ?
Result: 73.8

====

Test: NCI Yeast Anticancer Drug Screen. Data for the CLN2oe strain (AID 163);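 further: 0% = growth of vehicle-only control cultures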
Details: S. cerevisiae CLN2oe strain, at 100.0 µM, active compounds read high
The panel holds about 79,000 compounds, 15% with a hit somewhere; the sample as a whole holds those more often.
Measurement Type: growth inhibition (%)
Please give a number only; it is taken to be in %.

Request: Reported growth inhibition, molecule CCCCCCCCCCNC(=O)OCC : ____
Result: 99

Request: Item: COc1cc(C2C3=C(COC3=O)Oc3cc4c(cc32)OCO4)ccc1O (configuration not stated)
Result: 24

Request: Same again, this time with CCOC(=O)[C@H]1Nc2ccccc2C2c3ccccc3CC21 (some centres not stated)
Result: 23

Request: Next record, please: C=CCC1=C(C)C(OC(=O)/C=C/c2ccccc2)CC1=O (configuration not stated)
Result: 28

Request: Entry O=C(NCCCCCCCN1CCCCCCC1)C(C1CCCCC1)C1CCCCC1 please
Result: 98

Request: Query CC(=O)Nc1ccc(/C=C(\C#N)c2ccc(C)cc2)cc1 next
Result: 20

Request: Further, for COC1=CC(=O)C(C2(OC(C)C)OC(=O)C(Cl)=C2Cl)=CC1=O (configuration not stated) ?
Result: 99

Request: Continue with COc1ccccc1/C=C1\Sc2scc(-c3cccc([N+](=O)[O-])c3)[n+]2C1=O
Result: 95

Request: And what about the molecule CC(=O)OC1CCC2(C)C(=CCC3C4CCC5(OC6CC(C)CN(C(C)=O)C6C5C)C(C)=C4C(=O)C32)C1 (configuration not stated) ?
Result: 92

Request: Same read-out for O=C1C2CC[C@@H]3C(=O)C(Cl)(Cl)[C@@H]3CCC2C1(Cl)Cl (some centres not stated) ?
Result: 20

Request: Please answer likewise for O=C(N=Nc1cc(Cl)ccc1Cl)NNc1cc(Cl)ccc1Cl
Result: 9

Request: Then this molecule: CNC(=O)OCc1c(COC(=O)NC)c(-c2ccc(Cl)c(Cl)c2)n2c1CCC2
Result: 98

Request: Next entry: C/C(=N\NC(=S)N1CCCCC1)c1cccc(C)n1
Result: 99

Request: Input CSC1=NNC(SC)=NN1
Result: 99

Request: # repeat for CC(/C=C/c1ccc2c(c1)OCO2)[N+](=O)[O-] (configuration not stated)
Result: 99

Request: // next record CCCCCCCCCCCCCCCCCCN(C)CC(COP(=O)([O-])OCC[N+](C)(C)C)OC (configuration not stated)
Result: 98

Request: Let us now turn to OC1(c2ccccc2)CSC2=Nc3ccccc3C3CCN1N23 (configuration not stated)
Result: 93

Request: Input COc1cc2ccc(/C=C\[N+](=O)[O-])cc2cc1OC
Result: 95

Request: What about O=[N+]([O-])c1ccc(=S)[nH]c1 ?
Result: 67

Request: Now the molecule O=C(O)C1OC1(c1cccc(Cl)c1)c1ccccc1Cl (configuration not stated)
Result: 93

Request: Input CCCC/C=C/C(CC)(C(=O)OCC)C(=O)OCC
Result: -3

Request: Now the same for COc1cc2c3c(cccc3c1)C(=O)N(CCN(C)C)C2=O
Result: 21

Request: Here is the next molecule: CC(=O)OCC(=O)C1(O)CCC2C3CCC4CCCCC4(C)C3CCC21C (configuration not stated)
Result: 82

Request: Can you check CCCCCCCCCCCCCCCCCCNC next?
Result: 77

Request: Do the same for CN=C(N)N/N=C/c1ccc2c(c1)Cc1ccccc1-2 please
Result: 80

Request: Here is the next molecule: O=C(CCCN1CCC(O)(c2ccc(Cl)cc2)CC1)c1ccc(F)cc1
Result: 49

Request: Lookup COc1ccc2ccc3ccccc3c2c1C=O
Result: 81

Request: How about CCC/C(Cl)=N\OC(=O)Nc1cccc(C(F)(F)F)c1 ?
Result: 18

Request: Check CCOC(=O)c1cc(-c2ccc(Cl)cc2)c([N+](=O)[O-])n1C too.
Result: 96

Request: What do we get for O=C1OC(=O)C2CCCC3CCCC1C32 (configuration not stated) ?
Result: 96

Request: Query c1ccc2c(c1)sc1cc3ccncc3cc12 next
Result: 91

Request: Same read-out for O=C1c2ccccc2-c2n[nH]c3cccc1c23 ?
Result: 1

Request: Would you kindly repeat that for CSC(=S)N/N=C(\C)c1cccc(C)n1 ?
Result: 97

Request: Note, next up: Cc1nc(-c2ccccc2)c(-c2ccccc2)s1
Result: 96

Request: Input O=C(NCCCNCCCNC(=O)c1cc(-c2ccccc2)nc2ccccc12)c1cc(-c2ccccc2)nc2ccccc12
Result: 24

Request: What do we get for COc1ccc(OC)c2cc3ccccc3cc12 ?
Result: 3

Request: Check NNC(=O)CCc1ccc2ccc3ccccc3c2c1 too.
Result: 60

Request: Ok, now O=C1C=CC(=O)c2c(O)c(Nc3ccc(OC(F)(F)F)cc3)c(Cl)c(O)c21
Result: 83

Request: Same thing, different molecule: C/C(=N\NC(=S)SCc1ccccc1)c1ccccn1
Result: 89

Request: Queued: O=C(Cc1csc2[n+]1C(=O)/C(=C/c1ccc(Cl)cc1)S2)Nc1ccccc1
Result: 47

Request: Check CCCCN(CCCC)CCSc1ccc(Cl)cc1 too.
Result: 59

Request: O=C(c1cc(Br)ccc1O)c1cc(Br)ccc1O ?
Result: 99

====

Assay: NCI Yeast Anticancer Drug Screen. Data for the bub3 strain (AID 167)
Settings: S. cerevisiae bub3 mutant strain, at 5.0 µM (retest, dose inferred, filed as 0.5)
About 79,000 compounds went through this panel and 15% of them were active in at least one assay; those are over-represented in the sample as a whole. Activity calls are given as the source filed them. Cut-off read from the data, not from the text of the source: active = growth inhibition above about 70%; inactive = the rest.
Your reply should match one of these outcome classes. True for active, False for inactive

Request: Name the outcome recorded for O=[N+]([O-])C(=C(Sc1ccccc1)Sc1ccccc1)C(Cl)=C(Cl)Cl in the assay.
Result: False

Request: Next entry: Cn1c(=O)c(-c2ccccc2)c(N=[N+]=[N-])c2ccccc21
Result: False

Request: Cc1ccc(CSC(N)=Nc2ccccc2)cc1C
Result: False

Request: Please answer likewise for Cc1c(C(=O)C(=O)c2ccccc2)c(C)c(C(=O)C(=O)c2ccccc2)c(C)c1C(=O)C(=O)c1ccccc1
Result: True

Request: And for C(=C\c1ccccc1)/COc1ccccc1C(N1CCOCC1)n1nc2ccccc2n1 (centres undefined) ?
Result: False

Request: Similarly, CC1CCN(CCC(=O)c2ccc(Cl)cc2)CC1 ?
Result: False

Request: Moving on to the next molecule: CNC(=O)OCc1c(COC(=O)NC)c(-c2ccc(Cl)c(Cl)c2)n2c1CCC2
Result: False

Request: Then CCC(=O)OCCn1c2nc(=O)[nH]c(=O)c-2nc2cc(C)c(C)cc21 ?
Result: False

Request: Same read-out for COC(=O)C1=C(C(=O)OC)C2(C)C=CC1O2 (centres undefined) ?
Result: False

Request: Try this molecule too: Cc1cc(O)cc(O)c1N=Nc1ccc([N+](=O)[O-])cc1
Result: False

Request: Moving on to the next molecule: Cc1ccc(NN(NC(=O)OC(C)C)C(=O)OC(C)C)cc1
Result: False

Request: Consider next the molecule Nc1ccc2c(c1)C(=O)c1cccc(N)c1C2=O in the same way.
Result: False

Request: Another molecule: O=[N+]([O-])c1cccc([N+](=O)[O-])c1S(=O)(=O)c1ccccc1
Result: False

Request: Same thing, different molecule: OC1CCCc2c1cc1ccc3cccc4ccc2c1c34 (centres undefined)
Result: False
